system: A375 melanoma cells; test: MTT cell viability assay, A375; settings: Homo sapiens, A-375, 48 h, read-out: IC50, cytotoxic activity, MTT test, A375, 48 h;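 further: Read-out is formazan absorbance at 570 nm after 2 h with MTT, with compounds in at most 0.1% v/v DMSO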
EXPERIMENTAL_READOUT: IC50

O=C(O)C1OC(Oc2cc(O)c3c(=O)cc(-c4ccc(O)c(O)c4)oc3c2)C(O)C(O)C1O (stereo not drawn) [Compound 8, luteolin 7-O-glucuronide]: > 200 µM
O=c1c(O)c(-c2ccc(O)cc2)oc2cc(O)cc(O)c12 [Compound 18, kaempferol]: 100 to 200 µM
O=c1c(O)c(-c2cc(O)c(O)c(O)c2)oc2cc(O)cc(O)c12 [Compound 30, myricetin]: > 200 µM
CC1OC(OCC2OC(Oc3cc(O)c4c(=O)cc(-c5ccc(O)cc5)oc4c3)C(O)C(O)C2O)C(O)C(O)C1O (stereo not drawn) [Compound 5, apigenin 7-O-rutinoside]: > 200 µM
COc1ccc([C@@H]2CC(=O)c3c(O)cc(O)cc3O2)cc1O [Compound 33, hesperetin]: 100 to 200 µM
COc1c(O)cc(O)c2c(=O)c(O)c(-c3ccc(O)cc3)oc12 [Compound 19, 8-methoxykaempferol]: 100 to 200 µM
O=c1cc(-c2ccc(O)cc2)oc2cc(OC3OC(CO)C(O)C(O)C3O)cc(O)c12 (stereo not drawn) [Compound 3, apigenin 7-O-glucoside]: > 200 µM
O=c1c(O)c(-c2cc(O)c(O)c(O)c2)oc2cc(O)ccc12 [Compound 32, robinetin]: > 200 µM
O=c1cc(-c2ccc(O)c(O)c2)oc2cc(OC3OC(CO)C(O)C(O)C3O)cc(O)c12 (stereo not drawn) [Compound 7, luteolin 7-O-glucoside]: > 200 µM
